Biological target: MBP-FoxP3dN (Mus musculus, UniProt Q99JB6 188-423)
Sequence: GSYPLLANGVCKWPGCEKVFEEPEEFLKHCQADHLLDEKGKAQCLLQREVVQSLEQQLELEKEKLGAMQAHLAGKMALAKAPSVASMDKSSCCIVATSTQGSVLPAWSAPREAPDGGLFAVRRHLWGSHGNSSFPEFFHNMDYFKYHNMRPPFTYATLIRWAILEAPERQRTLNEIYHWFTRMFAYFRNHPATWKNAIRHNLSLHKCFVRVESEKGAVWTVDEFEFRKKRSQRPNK
Test: PD-seq (MBP pull-down with sequencing); 20 mM Tris-HCl pH 7.5, 100 mM NaCl, 1.5 mM MgCl2, 0.4 uM protein, 0.1 uM dsDNA library, 30 min, room temperature, amylose pull-down; high values mean tight binding
Conditions: protein: recombinant; tags: His6-MBP; chain copies: 2; dsDNA, one strand shown
In all, about 16,000 sequences were measured (“rpm ratio (pull-down/input)”: median about 0.5, highest 2% from about 5.5 on). This excerpt belongs to a sample that is enriched for the highest values.
endpoint: binding signal

Worked set:
- chainSequence: "GATGATTGTTCTCCCAGCTGATGAATTGTTCCTGTCGAGTAAACAAATTTTCCTAATCTTTCTGTTCAAGCGCCATCTAC"
  binding signal: "0.351 RPM ratio (pull-down/input)"
- chainSequence: "GATGATTGTTCTCCCAGCTGATGAATTCGCCAACTCGAGTAAACAAATTTTCCTAATCTTTCTGTTCAAGCGCCATCTAC"
  binding signal: "0.292 RPM ratio (pull-down/input)"
- chainSequence: "GATGATTGTTCTCCCAGCTGATGAATTGTCAGAGTCGAGTAAACAAATTTTCCTAATCTTTCTGTTCAAGCGCCATCTAC"
  binding signal: "0.234 RPM ratio (pull-down/input)"
- chainSequence: "GATGATTGTTCTCCCAGCTGATGAATTCGACGCATCGAGTAAACAAATTTTCCTAATCTTTCTGTTCAAGCGCCATCTAC"
  binding signal: "0.992 RPM ratio (pull-down/input)"
- chainSequence: "GATGATTGTTCTCCCAGCTGATGAATTCGCCATTTCGAGTAAACAAATTTTCCTAATCTTTCTGTTCAAGCGCCATCTAC"
  binding signal: "1.75 RPM ratio (pull-down/input)"

Kindly consider the entry below.
Please indicate recorded binding signal of GATGATTGTTCTCCCAGCTGATGAATTATTCATCTCGAGTAAACAAATTTTCCTAATCTTTCTGTTCAAGCGCCATCTAC measured with MBP-FoxP3dN (Mus musculus, UniProt Q99JB6 188-423). 0.399 RPM ratio (pull-down/input)
